- assay-target: IL-13 (Homo sapiens (Human), UniProt P35225 35-146, limits assumed)
- Sequence (P35225 35-146 limits assumed): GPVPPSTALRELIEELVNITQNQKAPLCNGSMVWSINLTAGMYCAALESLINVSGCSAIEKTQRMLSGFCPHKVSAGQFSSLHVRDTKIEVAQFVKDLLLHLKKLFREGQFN
- assay-comment: Biacore
pKd: −log10 of the molar value.
Reported pKd values are given for each entry in this list.

{"binder": "M478 (antibody, V domains shown, anti-IL-13, human IgG1) VH: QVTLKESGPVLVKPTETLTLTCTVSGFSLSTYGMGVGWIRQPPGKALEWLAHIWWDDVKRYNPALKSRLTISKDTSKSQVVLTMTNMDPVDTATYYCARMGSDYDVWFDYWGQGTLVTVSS VL: EIVLTQSPATLSLSPGERATLSCRASKSISKYLAWYQQKPGQAPRLLIYSGSTLQSGIPARFSGSGSGTDFTLTISSLEPEDFAVYYCQQHNHGPYTFGQGTKLEIK", "pKd": 9.68}
{"binder": "M443 (antibody, V domains shown, anti-IL-13, human IgG1) VH: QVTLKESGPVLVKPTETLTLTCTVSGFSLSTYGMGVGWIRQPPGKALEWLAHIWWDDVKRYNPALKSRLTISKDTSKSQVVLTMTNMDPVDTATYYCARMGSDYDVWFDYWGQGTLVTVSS VL: EIVLTQSPATLSLSPGERATLSCRASKSISKYLAWYQQKPGQAPRLLIYSGSTLQSGIPARFSGSGSGTDFTLTISSLEPEDFAVYYCQQHSWGPYTFGQGTKLEIK", "pKd": 10.06}
